These entries and their values trace back to patent US20210300924A1.

Below, each of the compounds is paired with its reported hERG IC20/TLR7 IC50 value.
Target: hERG channel (Homo sapiens)
Construct: expressed in transfected cells; host or cells: CHO (Chinese hamster ovary), CHOhERG
Sequence (Q12809 whole entry): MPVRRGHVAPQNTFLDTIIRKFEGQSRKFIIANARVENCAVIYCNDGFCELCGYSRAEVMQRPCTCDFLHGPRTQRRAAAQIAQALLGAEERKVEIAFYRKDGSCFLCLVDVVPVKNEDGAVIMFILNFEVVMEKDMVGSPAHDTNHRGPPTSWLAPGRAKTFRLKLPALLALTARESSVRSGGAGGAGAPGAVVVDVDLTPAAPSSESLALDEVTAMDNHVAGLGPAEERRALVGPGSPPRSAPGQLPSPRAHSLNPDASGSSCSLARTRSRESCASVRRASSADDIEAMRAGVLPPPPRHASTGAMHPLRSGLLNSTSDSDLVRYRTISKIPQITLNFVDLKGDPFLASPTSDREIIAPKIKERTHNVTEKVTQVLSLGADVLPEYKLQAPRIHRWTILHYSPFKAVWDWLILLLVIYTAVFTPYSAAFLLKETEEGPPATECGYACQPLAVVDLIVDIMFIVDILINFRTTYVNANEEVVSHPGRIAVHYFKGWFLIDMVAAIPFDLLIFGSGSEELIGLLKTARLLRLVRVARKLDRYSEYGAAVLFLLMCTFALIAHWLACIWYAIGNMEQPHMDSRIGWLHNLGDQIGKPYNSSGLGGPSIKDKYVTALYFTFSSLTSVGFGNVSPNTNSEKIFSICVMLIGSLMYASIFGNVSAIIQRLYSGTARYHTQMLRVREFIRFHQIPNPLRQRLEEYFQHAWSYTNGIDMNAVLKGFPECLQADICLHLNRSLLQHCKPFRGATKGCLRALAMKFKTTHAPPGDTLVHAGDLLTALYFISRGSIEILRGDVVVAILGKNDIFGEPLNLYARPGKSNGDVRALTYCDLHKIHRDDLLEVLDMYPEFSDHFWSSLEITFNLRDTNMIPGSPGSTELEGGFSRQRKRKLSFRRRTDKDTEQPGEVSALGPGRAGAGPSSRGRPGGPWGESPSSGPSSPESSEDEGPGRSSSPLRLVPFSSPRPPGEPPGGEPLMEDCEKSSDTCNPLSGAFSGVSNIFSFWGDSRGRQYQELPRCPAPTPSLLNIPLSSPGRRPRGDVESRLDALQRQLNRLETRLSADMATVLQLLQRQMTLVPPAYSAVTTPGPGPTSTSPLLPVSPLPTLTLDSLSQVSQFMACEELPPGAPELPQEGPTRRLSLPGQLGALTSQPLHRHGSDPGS
Assay: hERG channel inhibition assay (patch-clamp, CHOhERG cells)
Type: cell-based
Conditions: safety ratio; >30 suggests sufficient window
measured quantity: hERG IC20/TLR7 IC50

{"compound": "C[C@@H]1CN(c2ccc(C#N)c3ncccc23)C[C@H](CN2CC(n3cc4c(n3)CNCC4)C2)O1 [Example 4]", "measured quantity": "hERG IC20/TLR7 IC50", "result": ">1136.4"}
{"compound": "C[C@@H]1CN(c2ccc(C#N)c3ncccc23)C[C@H](CN2CCN(c3ccccc3)CC2)O1 [ER-887258, reference compound]", "measured quantity": "hERG IC20/TLR7 IC50", "result": 8.1}
{"compound": "C[C@@H]1CN(c2ccc(C#N)c3ncccc23)C[C@H](CN2CC(n3cc4c(n3)CCNC4)C2)O1 [Example 2]", "measured quantity": "hERG IC20/TLR7 IC50", "result": ">403.5"}
{"compound": "C[C@@H]1CN(c2ccc(C#N)c3ncccc23)C[C@H](CN2CCC(n3cc4c(n3)CCNC4)CC2)O1 [Example 36]", "measured quantity": "hERG IC20/TLR7 IC50", "result": 566.6}
{"compound": "C[C@@H]1CN(c2ccc(C#N)c3ncccc23)C[C@H](CN2CCN(c3ccc(Cl)cc3)CC2)O1 [Example R2, reference compound]", "measured quantity": "hERG IC20/TLR7 IC50", "result": 1.3}
{"compound": "C[C@@H]1CN(c2ccc(C#N)c3ncccc23)C[C@H](CN2CC(n3cc4c(n3)[C@@H](C)NCC4)C2)O1 (single isomer, unassigned) [Example 33]", "measured quantity": "hERG IC20/TLR7 IC50", "result": ">1369.9"}
{"compound": "C[C@@H]1CN(c2ccc(C#N)c3ncccc23)C[C@H](CN2CC(n3cc4c(n3)CNC4)C2)O1 [Example 11]", "measured quantity": "hERG IC20/TLR7 IC50", "result": ">602.4"}
{"compound": "Cc1nn(C2CN(C[C@H]3CN(c4ccc(C#N)c5ncccc45)C[C@@H](C)O3)C2)c2c1CNCC2 [Example 12]", "measured quantity": "hERG IC20/TLR7 IC50", "result": ">666.7"}
{"compound": "Cc1c2c(nn1C1CN(C[C@H]3CN(c4ccc(C#N)c5ncccc45)C[C@@H](C)O3)C1)CCNC2 [Example 13]", "measured quantity": "hERG IC20/TLR7 IC50", "result": ">694.4"}
{"compound": "C[C@@H]1CN(c2ccc(C#N)c3ncccc23)C[C@H](CN2CC(n3ncc4c3CCNC4)C2)O1 [Example 1]", "measured quantity": "hERG IC20/TLR7 IC50", "result": ">1023.8"}
{"compound": "C[C@@H]1CN(c2ccc(C#N)c3ncccc23)C[C@H](CN2CCN(c3ccncc3)CC2)O1 [ER-888286, reference compound]", "measured quantity": "hERG IC20/TLR7 IC50", "result": 0.3}
{"compound": "C[C@@H]1Cc2cn(C3CN(C[C@H]4CN(c5ccc(C#N)c6ncccc56)C[C@@H](C)O4)C3)nc2CN1 (single isomer, unassigned) [Example 30]", "measured quantity": "hERG IC20/TLR7 IC50", "result": ">2083.3"}
{"compound": "C[C@@H]1CN(c2ccc(C#N)c3ncccc23)C[C@H](CN2CCC(n3ncc4c3CCNC4)CC2)O1 [Example 35]", "measured quantity": "hERG IC20/TLR7 IC50", "result": ">1924.5"}
{"compound": "C[C@@H]1CN(c2ccc(C#N)c3ncccc23)C[C@H](CN2CC(n3cc4c(n3)CN(C)CC4)C2)O1 [Example 5]", "measured quantity": "hERG IC20/TLR7 IC50", "result": ">2857.1"}
{"compound": "C[C@@H]1CN(c2ccc(C#N)c3ncccc23)C[C@H](CN2CC(n3cc4c(n3)CN[C@@H](C)C4)C2)O1 (single isomer, unassigned) [Example 29]", "measured quantity": "hERG IC20/TLR7 IC50", "result": ">1265.8"}
